# Assayed Target: HCV NS5B (Hepatitis C virus genotype 1b)
# Construct: fusion protein, of which the carboxyl terminal 21 amino acids were removed to enhance its solubility; His tag (GSHHHHHH); made in house; host or cells: E. coli
# Method: Inhibition of viral RNA-dependent RNA polymerase (RdRp), in vitro biochemical assay
# Set-up: species or system HCV genotype 1b virus (BB7)
# Condition Info: HCV NS5B RdRp, BB7 genotype 1b; read-out: HCV pol-BB7 IC50
The entries below come with measured IC50 values attached.

{"Molecule": "CNC(=O)c1c(-c2ccccc2)oc2cc(OC)c(OC)cc12", "IC50": "≤ 500 nM"}
{"Molecule": "CNC(=O)c1c(-c2ccc(F)cc2)oc2cc(-c3ccc(F)nc3)c(OC(C)C)cc12", "IC50": "≤ 500 nM"}
{"Molecule": "CNC(=O)c1c(-c2ccc(F)cc2)oc2cc(N(CC3CC3)S(C)(=O)=O)c(OC(C)C)cc12", "IC50": "≤ 500 nM"}
{"Molecule": "CNC(=O)c1c(-c2ccc(F)cc2)oc2cc(-c3c(C)noc3C)c(OC(C)C)cc12", "IC50": "≤ 500 nM"}
{"Molecule": "CNC(=O)c1c(-c2ccc(F)cc2)oc2cc(-c3cccnc3)c(OC(C)C)cc12", "IC50": "≤ 500 nM"}
{"Molecule": "CNC(=O)c1c(-c2ccc(F)cc2)oc2cc(-c3nnn[nH]3)c(OC(C)C)cc12", "IC50": "500 to 5000 nM"}
{"Molecule": "CNC(=O)c1c(-c2ccc(F)cc2)oc2cc(N3CCC(O)C3)c(OC(C)C)cc12 (stereo not drawn)", "IC50": "≤ 500 nM"}
{"Molecule": "CNC(=O)c1c(-c2ccc(F)cc2)oc2cc(OC)c(OC)cc12", "IC50": "≤ 500 nM"}
{"Molecule": "CNC(=O)c1c(-c2ccc(F)cc2)oc2cc(NCC3CCCO3)c(OC(C)C)cc12 (stereo not drawn)", "IC50": "≤ 500 nM"}
{"Molecule": "CNC(=O)c1c(-c2ccc(F)cc2)oc2cc(S(N)(=O)=O)c(OC(C)C)cc12", "IC50": "5000 to 30000 nM"}
{"Molecule": "CNC(=O)c1c(-c2ccc(F)cc2)oc2cc(Cl)c(OC)cc12", "IC50": "≤ 500 nM"}
{"Molecule": "CNC(=O)c1c(-c2ccc(F)cc2)oc2cc(Nc3cc(C)nn3C)c(OC(C)C)cc12", "IC50": "5000 to 30000 nM"}
{"Molecule": "CNC(=O)c1c(-c2ccncc2)oc2ccc(F)cc12", "IC50": "500 to 5000 nM"}
{"Molecule": "CNC(=O)c1c(-c2ccc(F)cc2)oc2cc(OC)c(OC(C)C)cc12", "IC50": "≤ 500 nM"}
{"Molecule": "CNC(=O)c1c(-c2ccc(F)cc2)oc2cc(S(=O)(=O)NC3CC3)c(OC(C)C)cc12", "IC50": "≤ 500 nM"}
{"Molecule": "CNC(=O)c1c(-c2ccc(F)cc2)oc2cc(S(=O)(=O)N3CCOCC3)c(OC(C)C)cc12", "IC50": "≤ 500 nM"}
{"Molecule": "CNC(=O)c1c(-c2ccc(F)cc2)oc2cc(NC(C)(C)C)c(OC(C)C)cc12", "IC50": "≤ 500 nM"}
{"Molecule": "CNC(=O)c1c(-c2ccc(F)cc2)oc2cc(N3CCC(O)CC3)c(OC(C)C)cc12", "IC50": "500 to 5000 nM"}
{"Molecule": "CNC(=O)c1c(-c2ccc(N3CCCC3)cc2)oc2ccc(OC(C)C)cc12", "IC50": "5000 to 30000 nM"}
{"Molecule": "CNC(=O)c1c(-c2ccc(F)cc2)oc2cc(S(=O)(=O)N3CCC(O)CC3)c(OC(C)C)cc12", "IC50": "≤ 500 nM"}
{"Molecule": "CNC(=O)c1c(-c2ccc(F)cc2)oc2cc(N(C)S(C)(=O)=O)c(OC(C)C)cc12", "IC50": "≤ 500 nM"}
{"Molecule": "CNC(=O)c1c(-c2ccc(F)cc2)oc2cc(N)c(OCc3ccccc3)cc12", "IC50": "≤ 500 nM"}
{"Molecule": "CNC(=O)c1c(-c2ccc(F)cc2)oc2cc(C=O)c(OC(C)C)cc12", "IC50": "≤ 500 nM"}
{"Molecule": "CNC(=O)c1c(-c2ccc(N3CCOCC3)cc2)oc2ccc(OC)cc12", "IC50": "500 to 5000 nM"}
{"Molecule": "CCOc1cc2c(C(=O)NC)c(-c3ccc(F)cc3)oc2cc1N1CCOCC1", "IC50": "500 to 5000 nM"}
{"Molecule": "CNC(=O)c1c(-c2ccc(F)cc2)oc2cc(N3CCOCC3)c(OCc3ccc(F)cc3)cc12", "IC50": "500 to 5000 nM"}
{"Molecule": "CNC(=O)c1c(-c2ccc(F)cc2)oc2cc(NC(C)C)c(OC(C)C)cc12", "IC50": "≤ 500 nM"}
{"Molecule": "CNC(=O)c1c(-c2ccc(F)cc2)oc2cc(S(=O)(=O)N3CCCC3)c(OC(C)C)cc12", "IC50": "≤ 500 nM"}
{"Molecule": "CNC(=O)c1c(-c2ccc(F)cc2)oc2cc(NS(=O)(=O)C(C)C)c(OC(C)C)cc12", "IC50": "500 to 5000 nM"}
{"Molecule": "CNC(=O)c1c(-c2ccc(F)cc2)oc2cc(N3CCC(F)(F)CC3)c(OC(C)C)cc12", "IC50": "5000 to 30000 nM"}
{"Molecule": "CNC(=O)c1c(-c2ccc(F)cc2)oc2cc(NCc3ccoc3)c(OC(C)C)cc12", "IC50": "≤ 500 nM"}
{"Molecule": "CNC(=O)c1c(-c2ccc(F)cc2)oc2cc(N3CCC(F)CC3)c(OC(C)C)cc12", "IC50": "500 to 5000 nM"}
{"Molecule": "CNC(=O)c1c(-c2ccc(F)c(O)c2)oc2ccc(OC(C)C)cc12", "IC50": "5000 to 30000 nM"}
